experimental_system: Muscarinic acetylcholine receptor M3 (Rattus norvegicus, UniProt P08483)
Sequence (P08483 whole entry): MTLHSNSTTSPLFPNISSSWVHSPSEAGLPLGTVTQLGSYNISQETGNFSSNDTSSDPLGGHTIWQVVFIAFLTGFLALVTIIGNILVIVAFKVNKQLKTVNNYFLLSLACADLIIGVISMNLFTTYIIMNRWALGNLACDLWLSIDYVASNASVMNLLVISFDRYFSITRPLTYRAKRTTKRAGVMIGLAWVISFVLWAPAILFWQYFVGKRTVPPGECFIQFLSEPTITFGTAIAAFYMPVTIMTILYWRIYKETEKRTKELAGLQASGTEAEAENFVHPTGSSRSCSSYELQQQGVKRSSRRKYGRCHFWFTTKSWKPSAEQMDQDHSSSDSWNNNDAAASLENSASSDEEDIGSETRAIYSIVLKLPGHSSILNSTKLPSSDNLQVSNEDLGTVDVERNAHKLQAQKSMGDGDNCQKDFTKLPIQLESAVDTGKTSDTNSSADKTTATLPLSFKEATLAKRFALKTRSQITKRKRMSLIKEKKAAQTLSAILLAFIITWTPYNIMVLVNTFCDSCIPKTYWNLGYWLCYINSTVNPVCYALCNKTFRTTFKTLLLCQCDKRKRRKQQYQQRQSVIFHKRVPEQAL
assay: Displacement of [3H]N-methylscopolamine from muscarinic M3 receptor in rat submandibular gland
Type: tissue-based
pKi: −log10 of the molar value.
Entries annotated with measured pKi
result_type: pKi

# compound, result
rows = [
    ("CC(C)=CCCN1C[C@@H]2[C@H](C1)[C@H]2NC(=O)[C@@](O)(c1ccccc1)C1CCCC1", 7.15),
    ("COC(=O)c1ccc(CCN2C[C@@H]3[C@H](C2)[C@H]3NC(=O)C(O)(c2ccccc2)C2CCCC2)cc1 (some centres undefined)", 7.36),
    ("O=C(N[C@H]1[C@@H]2CN(CCc3ccc(Cl)cc3)C[C@@H]21)C(O)(c1ccccc1)C1CCCC1 (some centres undefined)", 7.50),
    ("O=C(N[C@H]1[C@@H]2CN(Cc3ccccc3)C[C@@H]21)C(O)(c1ccccc1)C1CCCCC1 (some centres undefined)", 7.50),
]
